- procedure-summary: Determination of inhibitor concentration in mouse plasma after intraperitoneal and oral dosing
- Assay type: in vivo
- test-settings: IP, 25 mg/kg, vehicle PEG400:H2O pH 2.3 60:40

{"columns": ["molecule", "Cmax"],
 "data": [
  ["CC(=O)c1ccc(C(=O)Nc2cccc(C(=O)c3ccc4c(/C=C/c5ccccn5)n[nH]c4c3)c2)s1 [Example 41(e)]", "1154 ng/mL"],
  ["O=C(Nc1cccc(C(=O)c2ccc3c(/C=C/c4ccccc4)n[nH]c3c2)c1)c1ccncc1", "5764 ng/mL"],
  ["O=C(c1cccc(NC(=O)c2ccccn2)c1)c1ccc2c(/C=C/c3ccccc3)n[nH]c2c1", "149 ng/mL"],
  ["Cc1ccc2cc(NC(=O)c3ccccc3Sc3ccc4c(/C=C/c5ccccn5)n[nH]c4c3)ccc2n1", "1990 ng/mL"]
]}
